# Test system: NCI 60 cancer cell lines
# Assay text: NCI anticancer screening over a panel of 60 cancer cells, single concentration 10 µM
# Assay type: cell-based, human
# Condition description: Homo sapiens, IGROV-1, Ovarian cancer IGROV1, 10 μM; read-out: % Growth Inhibition (GI %)
Reported metric: inhibition at 10 µM

{"Compound": "COc1ccc2[nH]c(=O)cc(-n3ncc(/C(C)=N/Nc4ccc(S(N)(=O)=O)cc4)c3C)c2c1 [Compound 4c]", "Recorded measurement": "< 5%"}
{"Compound": "C/C(=N\\Nc1ccc(S(N)(=O)=O)cc1)c1cnn(-c2cc(=O)[nH]c3ccc(Cl)cc23)c1C [Compound 4d]", "Recorded measurement": "14.6%"}
{"Compound": "C/C(=N\\Nc1ccc(S(N)(=O)=O)cc1)c1cnn(-c2cc(=O)[nH]c3ccc(C)cc23)c1C [Compound 4b]", "Recorded measurement": "< 5%"}
{"Compound": "C/C(=N\\Nc1ccc(C(=O)O)cc1)c1cnn(-c2cc(=O)[nH]c3ccc(Cl)cc23)c1C [Compound 4i]", "Recorded measurement": "< 5%"}
{"Compound": "C/C(=N\\Nc1ccc(C(=O)O)cc1)c1cnn(-c2cc(=O)[nH]c3ccc(Br)cc23)c1C [Compound 4j]", "Recorded measurement": "< 5%"}
{"Compound": "C/C(=N\\Nc1ccc(S(N)(=O)=O)cc1)c1cnn(-c2cc(=O)[nH]c3ccc(Br)cc23)c1C [Compound 4e]", "Recorded measurement": "43%"}
{"Compound": "C/C(=N\\Nc1ccc(C(=O)O)cc1)c1cnn(-c2cc(=O)[nH]c3ccccc23)c1C [Compound 4f]", "Recorded measurement": "< 5%"}
{"Compound": "C/C(=N\\Nc1ccc(C(=O)O)cc1)c1cnn(-c2cc(=O)[nH]c3ccc(C)cc23)c1C [Compound 4g]", "Recorded measurement": "< 5%"}
{"Compound": "COc1ccc2[nH]c(=O)cc(-n3ncc(/C(C)=N/Nc4ccc(C(=O)O)cc4)c3C)c2c1 [Compound 4h]", "Recorded measurement": "< 5%"}
{"Compound": "C/C(=N\\Nc1ccc(S(N)(=O)=O)cc1)c1cnn(-c2cc(=O)[nH]c3ccccc23)c1C [Compound 4a]", "Recorded measurement": "< 5%"}

###

Reported inhibition at 10 µM values follow for various compounds
# System: NCI 60 cancer cell lines
# Assay text: NCI anticancer screening over a panel of 60 cancer cells, single concentration 10 µM
# Type: cell-based, human
# Condition description: Homo sapiens, RXF 393, Renal cancer RXF 393, 10 μM; read-out: % Growth Inhibition (GI %)
Reported metric: inhibition at 10 µM (%)

{"Compound": "C/C(=N\\Nc1ccc(C(=O)O)cc1)c1cnn(-c2cc(=O)[nH]c3ccccc23)c1C [Compound 4f]", "Limit sign": "=", "Recorded measurement": 11.1}
{"Compound": "COc1ccc2[nH]c(=O)cc(-n3ncc(/C(C)=N/Nc4ccc(C(=O)O)cc4)c3C)c2c1 [Compound 4h]", "Limit sign": "<", "Recorded measurement": 5}
{"Compound": "C/C(=N\\Nc1ccc(C(=O)O)cc1)c1cnn(-c2cc(=O)[nH]c3ccc(C)cc23)c1C [Compound 4g]", "Limit sign": "=", "Recorded measurement": 6.27}
{"Compound": "C/C(=N\\Nc1ccc(S(N)(=O)=O)cc1)c1cnn(-c2cc(=O)[nH]c3ccc(C)cc23)c1C [Compound 4b]", "Limit sign": "=", "Recorded measurement": 9.76}
{"Compound": "COc1ccc2[nH]c(=O)cc(-n3ncc(/C(C)=N/Nc4ccc(S(N)(=O)=O)cc4)c3C)c2c1 [Compound 4c]", "Limit sign": "=", "Recorded measurement": 6.12}
{"Compound": "C/C(=N\\Nc1ccc(C(=O)O)cc1)c1cnn(-c2cc(=O)[nH]c3ccc(Br)cc23)c1C [Compound 4j]", "Limit sign": "<", "Recorded measurement": 5}
{"Compound": "C/C(=N\\Nc1ccc(S(N)(=O)=O)cc1)c1cnn(-c2cc(=O)[nH]c3ccccc23)c1C [Compound 4a]", "Limit sign": "<", "Recorded measurement": 5}

###

# Test system: NCI 60 cancer cell lines
# Assay text: NCI anticancer screening over a panel of 60 cancer cells, single concentration 10 µM
# Assay type: cell-based, human
# Condition description: Homo sapiens, HL-60, Leukemia HL-60(TB), 10 μM; read-out: Growth inhibition (GI %)
Param threshold (10%) applies to inhibition at 10 µM; output Condition met when value >= threshold, Condition not met when value < threshold.

{"Chemical structure": "CC(=O)c1cnn(-c2cc(=O)[nH]c3ccc(C)cc23)c1C", "Class label": "Condition met"}
{"Chemical structure": "CC(=O)c1cnn(-c2cc(=O)[nH]c3ccc(Cl)cc23)c1C", "Class label": "Condition not met"}
{"Chemical structure": "COc1ccc2[nH]c(=O)cc(-n3ncc(C(C)=O)c3C)c2c1", "Class label": "Condition met"}
{"Chemical structure": "CC(=O)c1cnn(-c2cc(=O)[nH]c3ccccc23)c1C", "Class label": "Condition not met"}
{"Chemical structure": "CC(=O)c1cnn(-c2cc(=O)[nH]c3ccc(Br)cc23)c1C", "Class label": "Condition met"}

###

# Assay text: in vitro
# Condition description: human, % viability

{"Compound": "CN[C@@H]1C[C@H]2O[C@@](C)([C@@H]1OC)n1c3ccccc3c3c4c(c5c6ccccc6n2c5c31)C(=O)NC4 [Staurosporine, reference compound]", "viability at 25 µM": "46.8%"}

###

# Test system: NCI 60 cancer cell lines
# Assay text: NCI anticancer screening over a panel of 60 cancer cells, single concentration 10 µM
# Assay type: cell-based, human
# Condition description: Homo sapiens, KM12, Colon cancer KM12, 10 μM; read-out: % Growth Inhibition (GI %)

{"Chemical structure": "COc1ccc2[nH]c(=O)cc(-n3ncc(/C(C)=N/Nc4ccc(C(=O)O)cc4)c3C)c2c1", "Limit sign": "<", "inhibition at 10 µM / %": 5}
{"Chemical structure": "C/C(=N\\Nc1ccc(S(N)(=O)=O)cc1)c1cnn(-c2cc(=O)[nH]c3ccc(Cl)cc23)c1C", "Limit sign": "=", "inhibition at 10 µM / %": 16.7}
{"Chemical structure": "C/C(=N\\Nc1ccc(C(=O)O)cc1)c1cnn(-c2cc(=O)[nH]c3ccc(Cl)cc23)c1C", "Limit sign": "<", "inhibition at 10 µM / %": 5}
{"Chemical structure": "C/C(=N\\Nc1ccc(S(N)(=O)=O)cc1)c1cnn(-c2cc(=O)[nH]c3ccc(Br)cc23)c1C", "Limit sign": "=", "inhibition at 10 µM / %": 46.3}

###

Catalogue of inhibition at 10 µM values
# Test system: NCI 60 cancer cell lines
# Assay text: NCI anticancer screening over a panel of 60 cancer cells, single concentration 10 µM
# Format: cell-based, human
# Condition description: Homo sapiens, LOX IMVI, Melanoma LOX IMVI, 10 μM; read-out: % Growth Inhibition (GI %)
# Method: Ten final compounds 4a–j and five intermediates 2a–e have been selected by the National Cancer Institute (NCI) for anticancer screening over a panel of 60 cancer cells that cover a variety of histological tissues, including the central nervous system, leukemia, lung, colon, kidney, ovary, breast, and prostate, using the protocol established by the National Cancer Institute (NCI). In a primary screening, each compound was screened at a concentration of 10 µM. […]
Reported metric: inhibition at 10 µM (%)

{"Chemical structure": "C/C(=N\\Nc1ccc(C(=O)O)cc1)c1cnn(-c2cc(=O)[nH]c3ccc(Cl)cc23)c1C", "Limit sign": "<", "Recorded measurement": 5}
{"Chemical structure": "C/C(=N\\Nc1ccc(S(N)(=O)=O)cc1)c1cnn(-c2cc(=O)[nH]c3ccccc23)c1C", "Limit sign": "=", "Recorded measurement": 5.22}
{"Chemical structure": "C/C(=N\\Nc1ccc(C(=O)O)cc1)c1cnn(-c2cc(=O)[nH]c3ccccc23)c1C", "Limit sign": "=", "Recorded measurement": 10.8}
{"Chemical structure": "COc1ccc2[nH]c(=O)cc(-n3ncc(/C(C)=N/Nc4ccc(C(=O)O)cc4)c3C)c2c1", "Limit sign": "<", "Recorded measurement": 5}
{"Chemical structure": "C/C(=N\\Nc1ccc(C(=O)O)cc1)c1cnn(-c2cc(=O)[nH]c3ccc(Br)cc23)c1C", "Limit sign": "<", "Recorded measurement": 5}
{"Chemical structure": "C/C(=N\\Nc1ccc(C(=O)O)cc1)c1cnn(-c2cc(=O)[nH]c3ccc(C)cc23)c1C", "Limit sign": "=", "Recorded measurement": 5.11}
{"Chemical structure": "C/C(=N\\Nc1ccc(S(N)(=O)=O)cc1)c1cnn(-c2cc(=O)[nH]c3ccc(Cl)cc23)c1C", "Limit sign": "=", "Recorded measurement": 29}
{"Chemical structure": "C/C(=N\\Nc1ccc(S(N)(=O)=O)cc1)c1cnn(-c2cc(=O)[nH]c3ccc(C)cc23)c1C", "Limit sign": "=", "Recorded measurement": 13}
{"Chemical structure": "C/C(=N\\Nc1ccc(S(N)(=O)=O)cc1)c1cnn(-c2cc(=O)[nH]c3ccc(Br)cc23)c1C", "Limit sign": "=", "Recorded measurement": 61.8}
